Values from PubChem BioAssay

assay: ATP-based viability of Huh7 replicon cells – cell-based, CellTiter-Glo luminescence, basal, 48 h, cytotoxicity control for HCV replication inhibitor project, primary screen (AID 1143); settings: higher = more signal, called active from +8 up or from −8 down;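 also: Huh7 hepatoma cells carrying a hepatitis C replication reporter with no stimulus; test concentration not given here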
Response key: true (1) means z-score >= -2; false (0) means z-score < -2.

Q: State whether the measured z-score reaches -2, counting equality as reaching it, for CCCCCN1CC=CC23O[C@@H]4C=CCOC(=O)[C@@H]4[C@H]2C(=O)N(C(C)CO)[C@@H]3C1=O (some centres not stated)
Result: true (1)

Q: State whether the measured z-score reaches -2, counting equality as reaching it, for "COC(=O)C(CC#Cc1ccc2c(c1)[C@]1(C(=O)N2)[C@H](c2ccc(O)cc2)N2[C@H](c3ccccc3)[C@H](c3ccccc3)OC(=O)[C@H]2[C@@H]1C(=O)N1CCN(c2ncccn2)CC1)C(=O)OC"
Result: false (0)

Q: State whether the measured z-score reaches -2, counting equality as reaching it, for "CCOC(=O)C1=CC[C@@H](c2ccc(C(F)(F)F)cc2)N(S(=O)(=O)c2ccc(C)cc2)[C@H]1c1ccccc1"
Result: false (0)

Q: State whether the measured z-score reaches -2, counting equality as reaching it, for "C=CCNC(=O)[C@H]1[C@@H]2C(=O)O[C@@H](c3ccccc3)[C@@H](c3ccccc3)N2[C@@H](c2ccc(O)cc2)[C@]12C(=O)Nc1ccc(C#CCCO)cc12"
Result: true (1)

Q: State whether the measured z-score reaches -2, counting equality as reaching it, for "COc1cc2c(cc1O)C=[N+](Cc1cc3c(cc1Br)OCO3)CC2"
Result: false (0)

Q: State whether the measured z-score reaches -2, counting equality as reaching it, for "COCCCNC(=O)[C@@]1(CCS(=O)(=O)c2ccccc2)N=C(c2ccc(OCCCO)cc2)O[C@H]1c1ccccc1N=[N+]=[N-]"
Result: false (0)

Q: State whether the measured z-score reaches -2, counting equality as reaching it, for "[N-]=[N+]=Nc1ccccc1C[C@@]1(C(=O)N2CCCCC2)N=C(c2ccc(OCCCO)cc2)O[C@@H]1c1ccccc1N=[N+]=[N-]"
Result: false (0)
